- Test system: HS 578T breast
- assay.protocol: NCI-60 one-dose screen, 48 h
- assay.setup: 10 µM unless noted
The panel holds about 83,000 compounds, 20% with a hit somewhere; the sample as a whole holds those more often. Calls of active or inactive are those of the source. Rule for the calls: active = growth percent below 10; inactive = the rest.
Tick one outcome: active, inactive

Solved entries (count: 3):
{"molecule": "C[C@]12CCC(=O)C[C@@H]1CC[C@@H]1[C@@H]2CC[C@]2(C)[C@@H](OC(=O)N(CCCl)N=O)CC[C@@H]12", "tested.target": "HS 578T breast", "group.label": "inactive"}
{"molecule": "CCOC(=O)P(=O)(OCC)OCC", "tested.target": "HS 578T breast", "group.label": "inactive"}
{"molecule": "CC[C@H](C)[C@H]1O[C@]2(C=C[C@@H]1C)C[C@@H]1C[C@@H](C/C=C(\\C)[C@@H](O[C@H]3C[C@H](OC)[C@@H](O[C@H]4C[C@H](OC)[C@@H](NC)[C@H](C)O4)[C@H](C)O3)[C@@H](C)/C=C/C=C3\\CO[C@@H]4[C@H](O)C(C)=C[C@@H](C(=O)O1)[C@]34O)O2", "tested.target": "HS 578T breast", "group.label": "active"}

Would you mind telling me which call this test gave COc1c(O)cc2c(c1OC)-c1ccc(SC)c(=O)cc1C(NC(C)=O)CC2 (stereo not drawn) ?
inactive

Can you look up the reported call for `CCCCn1c(=O)c(C(=O)NCc2ccccc2Cl)c(O)c2ccccc21` for me?
inactive

// return assay outcome for `O=NN1CCCCC1`
inactive

Assay result, entry N#CC(N)c1ccccc1 (stereo not drawn) — outcome?
inactive

# fetch the recorded call for `COc1cc(-c2ccc(N)c(OC)c2)ccc1N` here
inactive

Outcome? `Cn1cc(-c2csc(-c3cn(CCCCN4CCOCC4)c4ccc(F)cc34)n2)c2cccnc21`
inactive

Just curious, what result did `CC[C@@H](C)C(=O)O[C@H]1[C@H](O)[C@H]2[C@@H](CN3C[C@@H](C)CC[C@H]3[C@@]2(C)O)[C@@H]2C[C@]34O[C@]5(O)[C@@H](OC(=O)[C@@](C)(O)CC)CC[C@@]3(C)[C@@H]5[C@@H](OC(C)=O)[C@@H](OC(C)=O)[C@H]4[C@@]21O` get here?
inactive

Test call, this molecule: `CC1(C)C=Cc2c(ccc3c2[N+]([O-])=C2C3=C[C@@]34NC(=O)[C@]5(CCCN5C3=O)C[C@@H]4C2(C)C)O1`
inactive

Give the logged outcome of this assay for the following molecule: CCN1C(=O)NC(=O)C(C)(N2C(=O)c3c(F)c(F)c(F)c(F)c3C2=O)C1=O (stereo not drawn)
inactive

Can you look up the reported call for `COC(=O)C1=CO[C@@H](C)[C@@H]2CN3CCc4c([nH]c5cc(OC)ccc45)[C@@H]3C[C@H]12` for me?
inactive

###

- Test system: CCRF-CEM leukemia
- assay.protocol: NCI-60 one-dose screen, 48 h (100 = growth as untreated, 0 = no growth, -100 = all killed)
- assay.setup: 10 µM unless noted
Compounds without any hit were thinned out: in the full panel of roughly 83,000, 20% have a hit.
Catalogue of growth readings, one per entry.
Kindly answer with a numeric value in %, unit omitted.

{"compound": "Nc1cccnc1", "recorded.metric": "growth", "measure.unit": "%", "obs.value": 98.7}

Reported growth for CCRF-CEM leukemia, given `Cc1cc(NC(=O)NCCCOc2ccc(N3C(N)=NC(N)=NC3(C)C)cc2Cl)ccc1S(=O)(=O)F` ?
32.4

Missing value: growth, CCRF-CEM leukemia, entry `Cn1cc(C(=O)C[n+]2ccccc2)c2ccccc21` . Fill in?
96.6

Lab note: need growth with CCRF-CEM leukemia for entry CN1CCC2(CC1)C(C#N)C(=O)NC(=O)C2C#N (centres undefined) , please look it up.
104

Give growth (CCRF-CEM leukemia) of the following compound: `CC[C@H](C)[C@H](NC(=O)[C@H]1CCCCN1C)C(=O)N(C)[C@H](C(=O)NC12CC(C(=O)N[C@@H](Cc3ccccc3)C[C@H](C)C(=O)OC)(C1)C2)C(C)C`
103

Query for CCRF-CEM leukemia: what growth does the record show for `COc1cc(/C=C\[N+](=O)[O-])ccc1OCc1ccccc1` ?
14.5

Form field - read-out: growth; system: CCRF-CEM leukemia; submitted item: `O=NN(c1ccccc1)c1ccccc1`
98.9

Form field: growth recorded for CCC(=O)C(CC(C)[N+](C)(C)C)(c1ccccc1)c1ccccc1 (centres undefined) with CCRF-CEM leukemia (enter value)
114
